Test system: Trichophyton rubrum
method: Antifungal activity in vitro, resazurin growth inhibition: Trichophyton rubrum (B68183)
Type: cell-based
Each entry below carries its reported Inf. C: Trichophyton rubrum B68183, pIC50.
// no unit string in output, number only

Example compounds with recorded Inf. C: Trichophyton rubrum B68183, pIC50:
Clc1ccc2c(c1)-n1cccc1C(c1ccncc1)=NC2; 4.67
Clc1cccc2c1CN=C(c1ccc3occ(Cl)c3c1)c1cccn1-2; 6.85
c1ccc2c(c1)CN=C(c1cc3ccccc3s1)c1cccn1-2; 6.71
Br.Clc1ccc2c(c1)-n1cccc1C(c1ccncc1)NC2 (racemic); 5.00
Cc1cc(C2=NCc3c(Cl)cccc3-n3cccc32)ccn1; 5.10

query: With Trichophyton rubrum as the test system, provide measured Inf. C: Trichophyton rubrum B68183, pIC50 for this compound: CCc1cnc(C2=NCc3c(Cl)cc(Cl)cc3-n3cccc32)s1
result: 4.71

query: With Trichophyton rubrum as the test system, provide measured Inf. C: Trichophyton rubrum B68183, pIC50 for this compound: c1ccc2c(c1)CN=C(c1ccc3ncsc3c1)c1cccn1-2
result: 6.70

query: With Trichophyton rubrum as the test system, provide measured Inf. C: Trichophyton rubrum B68183, pIC50 for this compound: Clc1cccc2c1CN=C(c1ccc3ccoc3c1)c1cccn1-2
result: 8.25
